Below, each of the binders is paired with its reported Trimeric HA Binding RLU value.
Molecular target: recombinant homotrimeric HA, A/Solomon Islands/3/06 H1N1 (Influenza A virus A/Solomon Islands/3/06 (H1N1))
Experiment: trimeric HA microarray, transfection set 5
Conditions: remark: other sources report otherwise
PROPERTY: Trimeric HA Binding RLU (RLU)

{"BINDER": "TCN-555 (5246_L16) (antibody, V domains shown) VH: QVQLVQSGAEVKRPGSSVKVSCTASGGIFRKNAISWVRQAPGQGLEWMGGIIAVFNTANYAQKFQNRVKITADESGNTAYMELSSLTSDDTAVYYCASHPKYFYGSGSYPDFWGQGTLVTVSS VL: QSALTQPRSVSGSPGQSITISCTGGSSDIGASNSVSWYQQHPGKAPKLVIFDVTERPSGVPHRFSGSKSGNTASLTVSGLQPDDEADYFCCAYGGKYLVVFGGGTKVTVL", "UNITS_TEXT": "RLU", "RECORDED_VALUE": 44600}
{"BINDER": "TCN-523 (5248_A17) (antibody, V domains shown) VH: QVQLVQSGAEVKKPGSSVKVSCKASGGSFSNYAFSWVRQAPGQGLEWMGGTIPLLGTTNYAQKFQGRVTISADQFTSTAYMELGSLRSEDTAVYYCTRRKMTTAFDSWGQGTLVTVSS VL: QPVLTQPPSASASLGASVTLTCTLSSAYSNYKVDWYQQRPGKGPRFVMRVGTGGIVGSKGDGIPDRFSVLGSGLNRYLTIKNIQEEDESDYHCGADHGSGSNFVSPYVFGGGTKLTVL", "UNITS_TEXT": "RLU", "RECORDED_VALUE": 37600}
{"BINDER": "TCN-554 (5277_M05) (antibody, V domains shown) VH: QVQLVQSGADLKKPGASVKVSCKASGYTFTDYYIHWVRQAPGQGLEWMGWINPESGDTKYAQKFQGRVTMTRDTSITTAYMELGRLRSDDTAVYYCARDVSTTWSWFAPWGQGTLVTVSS VL: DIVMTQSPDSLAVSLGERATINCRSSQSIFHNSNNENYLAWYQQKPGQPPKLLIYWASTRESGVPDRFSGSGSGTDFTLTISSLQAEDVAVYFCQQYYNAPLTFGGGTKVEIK", "UNITS_TEXT": "RLU", "RECORDED_VALUE": 992}
{"BINDER": "TCN-540 (5060_F05) (antibody, V domains shown) VH: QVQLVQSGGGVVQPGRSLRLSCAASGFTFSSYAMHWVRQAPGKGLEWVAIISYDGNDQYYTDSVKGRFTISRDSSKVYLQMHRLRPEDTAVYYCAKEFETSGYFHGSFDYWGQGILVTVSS VL: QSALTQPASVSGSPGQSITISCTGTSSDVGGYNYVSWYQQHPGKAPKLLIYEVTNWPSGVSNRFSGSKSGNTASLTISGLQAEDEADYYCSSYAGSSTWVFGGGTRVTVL", "UNITS_TEXT": "RLU", "RECORDED_VALUE": 1180}
{"BINDER": "TCN-504 (3251_K17) (antibody, V domains shown) VH: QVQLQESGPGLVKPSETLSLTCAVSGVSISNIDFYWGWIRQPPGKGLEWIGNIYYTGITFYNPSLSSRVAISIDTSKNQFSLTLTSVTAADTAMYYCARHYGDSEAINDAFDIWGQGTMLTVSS VL: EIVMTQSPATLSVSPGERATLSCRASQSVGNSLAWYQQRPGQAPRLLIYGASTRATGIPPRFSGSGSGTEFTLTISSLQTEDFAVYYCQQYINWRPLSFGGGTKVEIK", "UNITS_TEXT": "RLU", "RECORDED_VALUE": 30100}

Just for reference, patent US20120207760A1 is where these values come from.
